Data origin, for the record: paper PMC5578959

target: LRRK2 WT (Homo sapiens)
Sequence (Q5S007 whole entry): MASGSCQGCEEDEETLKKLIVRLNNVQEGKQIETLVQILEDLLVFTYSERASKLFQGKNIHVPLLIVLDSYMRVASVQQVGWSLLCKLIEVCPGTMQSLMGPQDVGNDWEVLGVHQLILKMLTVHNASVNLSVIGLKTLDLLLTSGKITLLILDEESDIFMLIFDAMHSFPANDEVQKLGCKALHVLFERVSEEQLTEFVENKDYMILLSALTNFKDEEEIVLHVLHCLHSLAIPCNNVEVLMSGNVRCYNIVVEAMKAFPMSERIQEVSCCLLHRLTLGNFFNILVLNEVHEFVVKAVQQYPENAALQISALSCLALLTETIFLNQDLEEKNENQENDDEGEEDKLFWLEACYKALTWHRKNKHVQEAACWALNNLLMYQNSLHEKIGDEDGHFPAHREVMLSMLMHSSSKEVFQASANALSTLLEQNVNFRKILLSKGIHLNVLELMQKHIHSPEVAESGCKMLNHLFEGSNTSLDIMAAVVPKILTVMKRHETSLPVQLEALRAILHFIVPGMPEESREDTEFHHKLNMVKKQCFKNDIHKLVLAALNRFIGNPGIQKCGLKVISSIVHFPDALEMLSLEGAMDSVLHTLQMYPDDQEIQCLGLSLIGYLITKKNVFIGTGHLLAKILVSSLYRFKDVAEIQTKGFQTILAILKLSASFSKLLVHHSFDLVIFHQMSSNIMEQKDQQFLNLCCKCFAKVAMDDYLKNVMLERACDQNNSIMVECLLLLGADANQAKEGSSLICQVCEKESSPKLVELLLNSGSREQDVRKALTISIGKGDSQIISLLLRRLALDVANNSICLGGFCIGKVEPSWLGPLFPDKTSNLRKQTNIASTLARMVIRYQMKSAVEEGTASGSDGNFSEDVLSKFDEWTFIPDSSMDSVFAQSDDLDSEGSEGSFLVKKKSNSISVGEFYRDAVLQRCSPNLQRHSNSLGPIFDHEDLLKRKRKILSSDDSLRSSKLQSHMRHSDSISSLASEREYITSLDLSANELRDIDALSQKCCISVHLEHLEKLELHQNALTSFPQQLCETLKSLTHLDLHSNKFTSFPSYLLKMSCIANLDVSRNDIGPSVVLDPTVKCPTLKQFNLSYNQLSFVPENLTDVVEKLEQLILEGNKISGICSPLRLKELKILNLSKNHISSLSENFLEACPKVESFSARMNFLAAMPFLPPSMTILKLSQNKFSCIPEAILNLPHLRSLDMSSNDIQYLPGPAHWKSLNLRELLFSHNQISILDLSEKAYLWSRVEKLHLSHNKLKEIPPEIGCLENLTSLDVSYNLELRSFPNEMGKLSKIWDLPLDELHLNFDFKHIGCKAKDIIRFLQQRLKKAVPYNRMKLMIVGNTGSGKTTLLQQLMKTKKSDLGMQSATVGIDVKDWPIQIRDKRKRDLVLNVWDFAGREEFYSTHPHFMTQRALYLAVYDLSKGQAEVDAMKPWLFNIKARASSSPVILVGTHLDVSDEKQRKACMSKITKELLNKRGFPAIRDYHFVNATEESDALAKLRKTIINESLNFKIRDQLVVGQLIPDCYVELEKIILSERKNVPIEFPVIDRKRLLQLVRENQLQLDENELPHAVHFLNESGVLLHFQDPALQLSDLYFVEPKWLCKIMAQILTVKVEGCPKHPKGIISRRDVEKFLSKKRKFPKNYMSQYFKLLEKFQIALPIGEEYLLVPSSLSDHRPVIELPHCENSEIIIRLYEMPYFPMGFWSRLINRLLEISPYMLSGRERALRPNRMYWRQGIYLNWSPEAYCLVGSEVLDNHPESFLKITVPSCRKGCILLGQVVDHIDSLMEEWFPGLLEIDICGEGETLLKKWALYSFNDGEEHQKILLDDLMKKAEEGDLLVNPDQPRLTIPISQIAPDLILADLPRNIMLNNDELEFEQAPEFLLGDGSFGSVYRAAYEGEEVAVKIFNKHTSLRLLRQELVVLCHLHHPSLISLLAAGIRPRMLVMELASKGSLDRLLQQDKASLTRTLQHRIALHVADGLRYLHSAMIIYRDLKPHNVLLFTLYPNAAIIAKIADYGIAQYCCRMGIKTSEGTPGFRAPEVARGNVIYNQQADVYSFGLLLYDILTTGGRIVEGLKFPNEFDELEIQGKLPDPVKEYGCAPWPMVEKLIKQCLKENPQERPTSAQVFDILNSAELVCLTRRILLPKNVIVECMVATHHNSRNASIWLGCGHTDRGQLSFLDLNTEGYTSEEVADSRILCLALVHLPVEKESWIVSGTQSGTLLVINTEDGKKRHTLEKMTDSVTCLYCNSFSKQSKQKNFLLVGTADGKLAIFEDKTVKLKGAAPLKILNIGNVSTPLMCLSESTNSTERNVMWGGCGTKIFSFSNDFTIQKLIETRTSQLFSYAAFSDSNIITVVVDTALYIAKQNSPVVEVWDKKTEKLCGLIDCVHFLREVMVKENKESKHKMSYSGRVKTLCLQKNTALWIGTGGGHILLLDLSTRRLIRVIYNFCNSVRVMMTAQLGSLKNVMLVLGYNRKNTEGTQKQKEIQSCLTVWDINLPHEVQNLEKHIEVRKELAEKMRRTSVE
experimentSummary: Odyssey CLx 96-well ICW assay, LRRK2-Ser935 phosphorylation in transfected HEK293 cells
condition: transiently transfected HEK293 cells, 1 h, mean, n = 3
propertyName: IC50 (nM)

INSERT INTO assay_data (compoundstructurestring, endpointresult) VALUES
  ('Cc1cccc(-c2cc(Nc3ccn(C)n3)nc3[nH]cc(C#N)c23)c1', 12);

====

target: LRRK2 A2016T (Homo sapiens, UniProt Q5S007, A2016T)
experimentSummary: Odyssey CLx 96-well ICW assay, LRRK2-Ser935 phosphorylation in transfected HEK293 cells
condition: transiently transfected HEK293 cells, inhibition resistant mutant A2016T, 1 h, mean, n = 3
propertyName: IC50 (nM)

INSERT INTO results (compound, propertyname, resultunit, endpointresult) VALUES
  ('Cc1cccc(-c2cc(Nc3ccn(C)n3)nc3[nH]cc(C#N)c23)c1 [Lu AF58786]', 'IC50', 'nM', 93);
